Source: paper PMC12040169

Readings of viability at 28.5 h, 10 µM for the listed molecules
- Method Notes: in vitro
- Cond: human, hela cells, % viability
Report the figure in % without appending any unit label.

Illustrative cases are given below, each with its answer.
[
  {
    "Molecule": "Nc1cc(N)nc(SCc2cccnc2)n1",
    "viability at 28.5 h, 10 µM / %": 97.5
  },
  {
    "Molecule": "O=[N+]([O-])c1cc(C(F)(F)F)ccc1NCCCNc1nc(N2CCOCC2)nc2ccccc12",
    "viability at 28.5 h, 10 µM / %": 112
  },
  {
    "Molecule": "CN(C)c1ccc(CCNC(=O)c2cn3ccccc3n2)cc1",
    "viability at 28.5 h, 10 µM / %": 87.4
  }
]

Problem: Return viability at 28.5 h, 10 µM for the following molecule: NS(=O)(=O)c1ccc(CCNC(=O)c2ccc(Cl)c([N+](=O)[O-])c2)cc1
Result: 94.8

Problem: Return viability at 28.5 h, 10 µM for the following molecule: COc1ccc2c(c1)CCCN2C(=O)c1sc2ccccc2c1Cl
Result: 90.2

Problem: Return viability at 28.5 h, 10 µM for the following molecule: O=C(NC(c1ccccc1)c1ccccc1)N1CCN(c2ccccc2)CC1
Result: 90.7
